target: UniProt P14842; test: 5-HT2A receptor binding; conditions: test system per Klockow et al. 1986; read-out: receptor binding constant 5-HT2A
quantityKind: pKi
Numbers only, as −log10 of the molar value.

Provide pKi value for the following molecule: "N#Cc1ccc2[nH]cc(CCN3CCN(c4cccc5c4OCCO5)CC3)c2c1"
7.96

----------
molecular target: serotonin reuptake (SSRI) (Rattus norvegicus, UniProt P31652); construct: from tissue; assay: Serotonin reuptake inhibition (SSRI), receptor binding studies; assay type: biochemical; settings: test system per Wong et al. 1993; read-out: receptor binding constant SSRI
Sequence (P31652 whole entry): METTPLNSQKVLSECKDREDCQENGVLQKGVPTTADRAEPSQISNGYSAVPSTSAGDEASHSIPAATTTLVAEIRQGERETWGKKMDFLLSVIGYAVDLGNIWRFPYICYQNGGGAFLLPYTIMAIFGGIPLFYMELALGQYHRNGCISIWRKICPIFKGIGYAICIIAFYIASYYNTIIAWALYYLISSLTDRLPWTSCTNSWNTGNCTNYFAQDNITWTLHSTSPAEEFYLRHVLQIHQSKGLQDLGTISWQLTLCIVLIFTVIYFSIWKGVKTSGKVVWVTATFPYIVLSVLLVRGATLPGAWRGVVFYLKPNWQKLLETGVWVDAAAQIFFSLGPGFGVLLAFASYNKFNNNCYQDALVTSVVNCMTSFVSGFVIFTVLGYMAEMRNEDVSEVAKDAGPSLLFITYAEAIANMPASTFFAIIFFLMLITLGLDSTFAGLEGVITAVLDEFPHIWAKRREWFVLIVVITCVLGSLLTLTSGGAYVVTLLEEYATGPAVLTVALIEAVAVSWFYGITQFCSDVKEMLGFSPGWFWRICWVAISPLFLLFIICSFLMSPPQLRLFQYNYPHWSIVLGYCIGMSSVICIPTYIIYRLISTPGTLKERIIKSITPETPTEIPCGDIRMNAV
quantityKind: pKi
Answers are plain numbers, as −log10 of the molar value.

Answer with the recorded pKi for the molecule listed here: "N#Cc1ccc2[nH]cc(CCN3CCN(c4cccc5c4OCCO5)CC3)c2c1"
7.96

----------
Target: 5-HT1A (Rattus norvegicus, UniProt P19327)
Construct: from tissue
Sequence (P19327 whole entry): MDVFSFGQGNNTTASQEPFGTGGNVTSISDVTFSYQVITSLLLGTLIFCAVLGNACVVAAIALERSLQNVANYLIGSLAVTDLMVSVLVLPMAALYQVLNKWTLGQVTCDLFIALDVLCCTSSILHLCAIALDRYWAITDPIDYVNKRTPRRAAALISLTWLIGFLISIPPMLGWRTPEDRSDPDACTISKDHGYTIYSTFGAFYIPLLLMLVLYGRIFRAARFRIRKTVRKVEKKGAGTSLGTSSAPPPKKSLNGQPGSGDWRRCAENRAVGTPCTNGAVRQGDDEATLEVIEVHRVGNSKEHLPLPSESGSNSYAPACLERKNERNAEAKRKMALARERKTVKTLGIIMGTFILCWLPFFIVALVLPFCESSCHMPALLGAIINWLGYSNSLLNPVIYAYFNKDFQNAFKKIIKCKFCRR
Assay: 5-HT1A receptor binding
Source text: In-vitro evidence of interaction with the above-mentioned receptors can be provided, for example, as described in the following references: • 5-HT1A: Cossery J. M., Gozlan H., Spampinato U., Perdicakis C., Guillaumet G., Pichat L., Hamon M., 1987. […] As illustrative of two compounds of the formula I, receptor binding constants determined by the test systems described at the outset are indicated below: […]
quantityKind: pKi
Answers are plain numbers, as −log10 of the molar value.

Print 5-HT1A (Rattus norvegicus, UniProt P19327) pKi for N#Cc1ccc2[nH]cc(CCN3CCN(c4cccc5c4OCCO5)CC3)c2c1 [a)] .
7.77
